- System: HT29 RAMS11 overexpressing cells
- measurementProtocol: High-throughput viability assay (resazurin), 119 FDA-approved anticancer drugs, RAMS11 overexpressing cells (Clone1, Clone2)
- studyConditions: OE1 (RAMS11 overexpression clone 1), 1 uM drug, 72 h, vs empty vector control
Where a name gives a salt, the structure may show the parent alone.
measurementKind: Viability Fold Change
Give bare numbers.

Here are 5 compounds together with their reported answers.
{"compound": "O=C1[O][Pt]2([NH][C@@H]3CCCC[C@H]3[NH]2)[O]C1=O [oxaliplatin, reference compound]", "Viability Fold Change": 0.9881}
{"compound": "CC(C)C[C@H](NC(=O)[C@H](Cc1ccccc1)NC(=O)c1cnccn1)B(O)O", "Viability Fold Change": 1.059}
{"compound": "CO[C@H]1C[C@@H]2CC[C@@H](C)[C@@](O)(O2)C(=O)C(=O)N2CCCC[C@H]2C(=O)O[C@H]([C@H](C)C[C@@H]2CC[C@@H](OC(=O)C(C)(CO)CO)[C@H](OC)C2)CC(=O)[C@H](C)/C=C(\\C)[C@@H](O)[C@@H](OC)C(=O)[C@H](C)C[C@H](C)/C=C/C=C/C=C/1C", "Viability Fold Change": 0.6733}
{"compound": "O=C(/C=C/c1cccc(S(=O)(=O)Nc2ccccc2)c1)NO", "Viability Fold Change": 1.209}
{"compound": "COc1cc([C@@H]2c3cc4c(cc3[C@@H](O[C@@H]3O[C@@H]5CO[C@@H](c6cccs6)O[C@H]5[C@H](O)[C@H]3O)[C@H]3COC(=O)[C@H]23)OCO4)cc(OC)c1O [Teniopside]", "Viability Fold Change": 1.327}

Hi there! I need Viability Fold Change for each item below, if you can.
1. Cn1c(CCCC(=O)O)nc2cc(N(CCCl)CCCl)ccc21 [Bendamustine hydrochloride]
2. CN(N=O)C(=O)N[C@@H](C=O)[C@@H](O)[C@H](O)[C@H](O)CO
3. COc1cccc2c1C(=O)c1c(O)c3c(c(O)c1C2=O)C[C@@](O)(C(C)=O)C[C@@H]3O[C@H]1C[C@H](N)[C@H](O)[C@H](C)O1 [daunorubicin HCl, reference compound]
4. C[C@@H](Oc1cc(-c2cnn(C3CCNCC3)c2)cnc1N)c1c(Cl)ccc(F)c1Cl
5. C/C(=C\c1csc(C)n1)[C@@H]1C[C@@H]2O[C@]2(C)CCC[C@H](C)[C@H](O)[C@@H](C)C(=O)C(C)(C)[C@@H](O)CC(=O)N1 [Ixabepilone]

1. 0.9725
2. 1.011
3. 2.258
4. 1.07
5. 1.943

Hello, the source for this data is patent US12024707B2, in case you need it.
